molecular target: ULK1 (Homo sapiens (Human), UniProt O75385)
Sequence (O75385 whole entry, species assumed): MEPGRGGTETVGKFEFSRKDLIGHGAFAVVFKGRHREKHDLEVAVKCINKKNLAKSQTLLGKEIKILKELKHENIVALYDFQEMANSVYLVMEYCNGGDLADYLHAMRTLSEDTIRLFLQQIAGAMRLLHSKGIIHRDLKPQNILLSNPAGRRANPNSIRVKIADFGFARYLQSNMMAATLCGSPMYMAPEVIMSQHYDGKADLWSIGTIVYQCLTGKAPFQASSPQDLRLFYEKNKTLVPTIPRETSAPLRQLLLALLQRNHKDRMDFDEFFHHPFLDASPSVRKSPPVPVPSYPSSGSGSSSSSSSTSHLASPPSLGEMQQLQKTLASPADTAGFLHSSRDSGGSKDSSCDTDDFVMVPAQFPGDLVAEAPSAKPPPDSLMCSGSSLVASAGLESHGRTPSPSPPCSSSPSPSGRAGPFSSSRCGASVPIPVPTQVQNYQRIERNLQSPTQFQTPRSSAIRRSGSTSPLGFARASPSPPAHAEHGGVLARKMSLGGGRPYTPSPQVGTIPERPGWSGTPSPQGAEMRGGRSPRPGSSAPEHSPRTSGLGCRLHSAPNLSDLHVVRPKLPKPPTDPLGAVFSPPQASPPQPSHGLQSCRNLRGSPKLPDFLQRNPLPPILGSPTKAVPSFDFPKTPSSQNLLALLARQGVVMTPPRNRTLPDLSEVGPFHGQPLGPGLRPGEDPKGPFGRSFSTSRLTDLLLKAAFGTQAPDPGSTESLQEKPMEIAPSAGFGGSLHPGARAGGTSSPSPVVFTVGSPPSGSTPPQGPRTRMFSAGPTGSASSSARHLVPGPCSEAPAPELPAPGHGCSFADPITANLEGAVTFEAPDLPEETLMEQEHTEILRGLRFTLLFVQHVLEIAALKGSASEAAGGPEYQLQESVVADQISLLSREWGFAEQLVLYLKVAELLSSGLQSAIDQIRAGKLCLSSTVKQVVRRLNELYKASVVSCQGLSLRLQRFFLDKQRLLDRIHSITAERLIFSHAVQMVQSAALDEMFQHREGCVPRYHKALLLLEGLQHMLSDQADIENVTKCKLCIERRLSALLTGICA
Provide the reported IC50 of each item.

>>> reported("N#CCc1cccc(Nc2nc(Nc3ccc4c(c3)CCC(=O)N4)ncc2C(F)(F)F)c1")
"< 200 nM"

Fill in IC50 for each of the 5 compounds listed.
1. O=C1CCc2cc(Nc3ncc(C(F)(F)F)c(Nc4ccc5c(c4)CCC(=O)N5)n3)ccc2N1 [120c]
2. Fc1c(Nc2nc(Nc3ccc4c(c3)OCO4)ncc2C(F)(F)F)cccc1C(F)(F)F [141b]
3. FC(F)(F)c1cnc(NC2CC2)nc1NC1CC1
4. FC(F)(F)c1cnc(Nc2ccc3c(c2)OCO3)nc1NC1Cc2ccccc2C1 [163b]
5. CNC(=O)c1ccccc1Nc1nc(Nc2cc(N3CCOCC3)cc(N3CCOCC3)c2)ncc1C(F)(F)F

Out:
1. < 200 nM
2. < 200 nM
3. > 2000 nM
4. > 2000 nM
5. < 200 nM

Value sought for every listed compound: IC50.
1. COc1ccc(C)c(Nc2ncc(Br)c(Nc3ccccn3)n2)c1
2. COc1ccc(Nc2nc(Nc3ccc(N4CCOCC4)cc3OC)ncc2C(F)(F)F)cn1

Out:
1. 200 to 2000 nM
2. > 2000 nM
